target: HIV-1 Env of ZM233.6 (HIV-1); experiment: cell-based or functional assay
Measured Metric: neutralization IC50 (µg/mL)
Answers are plain numbers, in µg/mL.

CAP256-VRC26.03 (antibody, V domains shown) VH: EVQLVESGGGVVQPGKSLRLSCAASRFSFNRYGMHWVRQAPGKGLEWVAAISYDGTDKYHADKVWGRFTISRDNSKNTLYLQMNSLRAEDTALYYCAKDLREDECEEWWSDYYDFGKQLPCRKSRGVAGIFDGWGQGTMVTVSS VL: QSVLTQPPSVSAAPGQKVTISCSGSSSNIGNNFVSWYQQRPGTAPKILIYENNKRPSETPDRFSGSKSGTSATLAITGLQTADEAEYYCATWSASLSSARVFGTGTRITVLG ... 0.032

Turning now to a further binder:
neutralization IC50 for CAP256-VRC26.11 (antibody, V domains shown) VH: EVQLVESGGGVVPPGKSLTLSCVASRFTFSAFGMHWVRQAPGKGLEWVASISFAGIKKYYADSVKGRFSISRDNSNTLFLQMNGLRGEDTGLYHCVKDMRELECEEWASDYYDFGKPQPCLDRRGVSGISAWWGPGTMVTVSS VL: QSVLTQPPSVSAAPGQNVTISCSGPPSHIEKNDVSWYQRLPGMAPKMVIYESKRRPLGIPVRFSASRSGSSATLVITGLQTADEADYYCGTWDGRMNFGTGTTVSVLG is 0.322
